Field: Percent Effect. Provide a value for each of the molecules that follow.
Biological target: Tyrosyl-tRNA synthetase, putative (Trypanosoma cruzi (strain CL Brener)) (UniProt Q4DSP6)
Sequence (whole entry): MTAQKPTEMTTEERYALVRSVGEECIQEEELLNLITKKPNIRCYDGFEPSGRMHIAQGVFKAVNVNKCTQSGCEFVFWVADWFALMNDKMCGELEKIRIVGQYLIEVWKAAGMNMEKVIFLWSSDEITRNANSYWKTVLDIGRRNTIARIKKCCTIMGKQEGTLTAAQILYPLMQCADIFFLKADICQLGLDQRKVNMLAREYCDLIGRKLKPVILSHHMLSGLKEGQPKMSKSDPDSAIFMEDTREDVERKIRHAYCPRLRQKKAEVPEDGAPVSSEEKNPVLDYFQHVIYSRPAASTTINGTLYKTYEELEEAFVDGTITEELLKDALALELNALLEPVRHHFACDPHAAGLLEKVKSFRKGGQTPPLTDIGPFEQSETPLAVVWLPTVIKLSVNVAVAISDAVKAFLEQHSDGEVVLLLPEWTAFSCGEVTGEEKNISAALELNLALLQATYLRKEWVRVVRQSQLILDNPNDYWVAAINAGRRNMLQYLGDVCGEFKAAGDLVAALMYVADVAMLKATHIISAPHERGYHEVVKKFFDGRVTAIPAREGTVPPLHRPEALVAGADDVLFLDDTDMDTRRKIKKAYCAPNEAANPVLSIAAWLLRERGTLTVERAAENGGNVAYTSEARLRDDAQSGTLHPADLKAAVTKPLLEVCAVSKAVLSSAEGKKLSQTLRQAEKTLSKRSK
Assay: Trypanosoma cruzi tyrosyl tRNA synthetase (TcYRS) _High Tyrosine SOP
Assay type: functional
Design: scale not given: in the data most compounds retested in dose-response had high values
Conditions: 30 µM
Hi, when you answer, please include the unit after the number. Thanks!

-- ask Entry under review: COC(=O)C(c1cc(F)ccc1F)N(C)C(=O)c1ccnc(C)n1 (centres undefined) . Reported Percent Effect?
-- reply 7.29%

-- ask // Percent Effect lookup, key: CC(NC(=O)NCCCO)c1ccc2c(c1)OCCO2 (centres undefined)
-- reply 4.95%

-- ask Look up Percent Effect: "O=C(CC1CCCC1)NCCn1ccc(-c2ccncc2)n1"
-- reply -5.29%

-- ask Field request: Percent Effect | item: CN1C(=O)CC(C(=O)O)C12CCN(Cc1ccc(Cl)cc1F)CC2 (centres undefined)
-- reply 6.01%

-- ask Any idea what Percent Effect was measured for "CCOc1ccc(-n2nnc(C(=O)O)c2-c2ccccn2)cc1" ?
-- reply 3.19%

-- ask Would you mind telling me what Percent Effect value was observed for "CSc1sc(NC(=O)Cc2c(C)nc(C)[nH]c2=O)nc1C" ?
-- reply 7.35%

-- ask I'd like to know its Percent Effect. The molecule in question is CCc1cc(C)c(C(=O)N2CCCC2CC(=O)c2cnn(C)c2)o1 (centres undefined)
-- reply -1.04%

-- ask Looking for the measured Percent Effect of "COCc1cc(NCCc2ccc(F)cc2)n2nccc2n1" , can you help?
-- reply 1.07%

-- ask Give its Percent Effect value. Item: "Cc1occc1C(=O)N1CCC2(CCN(Cc3nccs3)C2)CC1"
-- reply 0%

-- ask Fill in the blank: the reported Percent Effect of Cc1ccc(OCCC(=O)NC2CCc3nccn3C2)cc1 (centres undefined) is ____.
-- reply 5.32%

-- ask Looking for the measured Percent Effect of "O=C([C@H]1C[C@H]2OCC[C@H]2N(C(=O)C2CCOCC2)C1)N1CCCCO1" , can you help?
-- reply 9.38%

-- ask Fill in: Percent Effect of O=C(N1CCCC1)N1Cc2nccn2CC(CN2CCCC2)C1 (centres undefined) is ___
-- reply -1.08%

-- ask Which Percent Effect is listed for CSC(C)C(=O)NCCCc1cc(N)n(-c2ccccc2)n1 (centres undefined) ?
-- reply -1.07%

-- ask Value lookup for Percent Effect; key = "Cc1ccc(NC(=O)Nc2cnc(N3CCN(C)CC3)nc2)c(Cl)c1"
-- reply 6.35%

-- ask Quick one: Percent Effect of CNC(=O)C1Cn2ccnc2C2(CCN(Cc3cccc(C)n3)CC2)O1 (centres undefined) ?
-- reply 4.32%

-- ask Which Percent Effect is reported for this molecule? "CNS(=O)(=O)c1cccc(CNc2ccc(C(F)(F)F)nn2)c1"
-- reply 4.43%

-- ask Need Percent Effect, item "c1coc(-c2noc(CN3CCC(c4ccn[nH]4)CC3)n2)c1"
-- reply -1.59%

-- ask Which Percent Effect is reported for this molecule? "COCC(=O)N1CC[C@@H]2O[C@H](COCc3ccncc3)CC[C@@H]21"
-- reply 1.08%

-- ask Form field: reported Percent Effect of Cc1ccc(NC(=O)NC(C)c2nc[nH]n2)s1 (centres undefined)
-- reply 6.45%

-- ask Look up Percent Effect for this molecule: Cc1noc(C(C)N2CCN(CC(=O)N3CCOCC3)CC2)n1 (centres undefined)
-- reply 2.13%

-- ask Would you mind telling me what Percent Effect value was observed for Cc1ccc(NC(=O)NC(C)c2nc[nH]n2)cc1 (centres undefined) ?
-- reply 1.07%

-- ask Which measured Percent Effect value corresponds to "Cc1cnc(N2C[C@H]3C[C@H](C(=O)N(C)C)[C@@H](C2)O3)nc1" ?
-- reply -1.04%

-- ask Consider the molecule "c1ccc(-c2ccc3nc(C4CCN(CC5CC5)CC4)nn3c2)cc1" and give its measured Percent Effect.
-- reply 4.17%

-- ask Query: Percent Effect; subject: "CNC(=O)[C@H]1CCS(=O)(=O)[C@@H]2CN(Cc3ccc(OC)cc3)C[C@H]12"
-- reply 82.2%

-- ask Name the recorded Percent Effect for CSCCC1c2nc[nH]c2CCN1Cc1ccnc2ccccc12 (centres undefined) .
-- reply 9.29%

-- ask Any idea what its Percent Effect is? The molecule is "O=C(C1CCCC1)N1CCN(Cc2nc(-c3ccco3)no2)CC1"
-- reply 4.95%

-- ask Consider the molecule shown here: CC(C)C1CN(C(=O)c2nccnc2N)CCS1 (centres undefined) What is its recorded Percent Effect?
-- reply 3.23%

-- ask What Percent Effect value was documented for this molecule, c1ccc(-n2cc(CN3CCCC(Cn4cncn4)C3)nn2)cc1 (centres undefined) ?
-- reply 7.29%

-- ask What value of Percent Effect has been recorded for this entry: "Cc1csc(CNC(=O)NCCc2ccc3c(c2)OCCO3)n1"
-- reply 4.76%

-- ask What does the record list as Percent Effect for "O=C(c1cccc(F)c1)N1CCN2C[C@H](OCc3cccnc3)C[C@H]2C1" ?
-- reply 3.19%

-- ask Look at this molecule and give its reported Percent Effect. "CCn1cc(CN(C)S(=O)(=O)c2ccc(NC(C)=O)cc2)cn1"
-- reply 1.06%

-- ask Can you share its Percent Effect? I mean this molecule: "CCc1ncnc2c1CCN(C(=O)N1CCCC1)CC2"
-- reply -3.12%

-- ask GET /values?readout=Percent Effect&item= "CCOC(=O)C1CCN(Cc2csc(C(C)(C)C)n2)CC1"
-- reply 4.43%

-- ask Any idea what its Percent Effect is? The molecule is "CN(C)CCNC(=O)CNC(=O)N1CCc2c([nH]c3ccc(Cl)cc23)C1"
-- reply -1.06%

-- ask Consider the molecule shown here: CC(C)N1CCOCC2(CN(Cc3ccco3)CCO2)C1 (centres undefined) What is its recorded Percent Effect?
-- reply 2.08%

-- ask Give the measured Percent Effect of Cc1ccn(-c2ccc(C(=O)N3CCCC(n4ccnc4)C3)cc2)n1 (centres undefined) .
-- reply 4.43%

-- ask Would you kindly share the measured Percent Effect for "Cc1ccccc1CSc1nc(N)cc(N2CC[C@@H](O)C2)n1" ?
-- reply 20.4%

-- ask # query: Percent Effect of entry "Cc1ccc(C(=O)Nc2cn[nH]c2)cc1C"
-- reply 11.3%

-- ask // returns reported Percent Effect for input "Cc1ccc(C(=O)NCC2(O)CCOCC2)cc1Br"
-- reply 4.76%

-- ask I have this molecule here, "COC(=O)c1cccc(NC(=O)CCn2nc(-c3cccs3)oc2=O)c1" , and I need its recorded Percent Effect.
-- reply 0%

-- ask For the molecule shown here, "CCOC(=O)c1sc2ccsc2c1CN" , give the reported Percent Effect.
-- reply 0%

-- ask GET /values?readout=Percent Effect&item= "CN(CC1CC1)c1ccc2ccc(C(=O)NCCN3CCOCC3)cn12"
-- reply 34.8%

-- ask Query (molecule): O=C1CC(NCc2ccncc2)CN1Cc1cccc(F)c1 (centres undefined) ; field requested: Percent Effect
-- reply 1.59%

-- ask Param item = "Cc1cnn(CCNCC(=O)NCc2ccccc2)c1" ; retrieve measured Percent Effect.
-- reply 6.4%
